Target: Human CD73 (Homo sapiens)
Construct: purchased R&D Systems; host or cells: CHO cells
Sequence (P21589 27-549): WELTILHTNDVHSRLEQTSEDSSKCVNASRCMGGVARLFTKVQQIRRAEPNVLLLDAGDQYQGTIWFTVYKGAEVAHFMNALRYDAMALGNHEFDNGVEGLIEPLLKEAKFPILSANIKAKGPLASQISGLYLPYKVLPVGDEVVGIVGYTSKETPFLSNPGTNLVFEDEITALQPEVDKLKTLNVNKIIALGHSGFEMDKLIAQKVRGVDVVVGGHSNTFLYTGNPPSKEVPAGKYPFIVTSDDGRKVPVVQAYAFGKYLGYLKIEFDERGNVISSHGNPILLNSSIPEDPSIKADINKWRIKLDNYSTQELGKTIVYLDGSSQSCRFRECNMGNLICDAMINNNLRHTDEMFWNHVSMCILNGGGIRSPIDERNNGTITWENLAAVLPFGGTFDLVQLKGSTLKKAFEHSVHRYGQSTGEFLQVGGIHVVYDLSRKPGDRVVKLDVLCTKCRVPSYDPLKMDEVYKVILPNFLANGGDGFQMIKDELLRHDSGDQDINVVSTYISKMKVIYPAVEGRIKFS
Assay: CD73 Enzyme Assay
Format: biochemical
Settings: 0.25 nM hCD73, 25 μM AMP, kinetic read at 360 nm; read-out: CD73 Enzyme Assay IC50
pIC50: −log10 of the molar value.
Measurement Kind: pIC50

Query: // fetch pIC50 for "O=P(O)(O)COC[C@H]1O[C@@H](n2cnc3c(NCCc4ccccc4)ncnc32)[C@H](O)[C@@H]1O" ; system: Human CD73 (Homo sapiens)
Reply: 6.00 to 7.00

Query: // fetch pIC50 for "O=P(O)(O)COC[C@H]1O[C@@H](n2cnc3c(N4CCCC4)ncnc32)[C@H](O)[C@@H]1O" ; system: Human CD73 (Homo sapiens)
Reply: 6.00 to 7.00

Query: // fetch pIC50 for "C[C@H](Nc1nc(Cl)nc2c1ccn2[C@@H]1O[C@H](COCP(=O)(O)O)[C@@H](O)[C@H]1O)c1ccc(Cl)cc1" ; system: Human CD73 (Homo sapiens)
Reply: > 8.00

Query: // fetch pIC50 for "O=P(O)(O)COC[C@H]1O[C@@H](n2cnc3c(NCc4ccccc4)cc(Cl)nc32)[C@H](O)[C@@H]1O" ; system: Human CD73 (Homo sapiens)
Reply: 6.00 to 7.00

Query: // fetch pIC50 for O=P(O)(O)CS(=O)(=O)C[C@H]1O[C@@H](n2ccc3c(N4CC5CC5C4)nc(Cl)nc32)[C@H](O)[C@@H]1O (some centres unmarked) ; system: Human CD73 (Homo sapiens)
Reply: 7.00 to 8.00

Query: // fetch pIC50 for "CS(=O)(=O)c1cccc(CNc2ncnc3c2ncn3[C@@H]2O[C@H](COCP(=O)(O)O)[C@@H](O)[C@H]2O)c1" ; system: Human CD73 (Homo sapiens)
Reply: < 6.00

Query: // fetch pIC50 for "CCOc1nc(NC2CCCC2)c2ccn([C@@H]3O[C@H](COCP(=O)(O)O)[C@@H](O)[C@H]3O)c2n1" ; system: Human CD73 (Homo sapiens)
Reply: 7.00 to 8.00

Query: // fetch pIC50 for "C[C@H](Nc1nc(C#N)nc2c1ccn2[C@@H]1O[C@H](COCP(=O)(O)O)[C@@H](O)[C@H]1O)c1ccc(F)cc1F" ; system: Human CD73 (Homo sapiens)
Reply: > 8.00

Query: // fetch pIC50 for "N#Cc1nc(NC2CCC2)c2ccn([C@@H]3O[C@H](COCP(=O)(O)O)[C@@H](O)[C@H]3O)c2n1" ; system: Human CD73 (Homo sapiens)
Reply: > 8.00

Query: // fetch pIC50 for "O=P(O)(O)COC[C@H]1O[C@@H](n2ccc3c(Sc4ccccc4)nc(Cl)nc32)[C@H](O)[C@@H]1O" ; system: Human CD73 (Homo sapiens)
Reply: 6.00 to 7.00

Query: // fetch pIC50 for CC(Nc1ncnc2c1ncn2[C@@H]1O[C@H](COCP(=O)(O)O)[C@@H](O)[C@H]1O)c1ccccc1 (some centres unmarked) ; system: Human CD73 (Homo sapiens)
Reply: 6.00 to 7.00

Query: // fetch pIC50 for "O=P(O)(O)COC[C@H]1O[C@@H](n2cnc3c(NCc4ccccc4)nc(-c4ccccc4)nc32)[C@H](O)[C@@H]1O" ; system: Human CD73 (Homo sapiens)
Reply: 6.00 to 7.00

Query: // fetch pIC50 for "O=P(O)(O)COC[C@H]1O[C@@H](n2cnc3c2ncn2ccnc32)[C@H](O)[C@@H]1O" ; system: Human CD73 (Homo sapiens)
Reply: < 6.00

Query: // fetch pIC50 for "CCNc1nc(Cl)nc2c1ccn2[C@@H]1O[C@H](COCP(=O)(O)O)[C@@H](O)[C@H]1O" ; system: Human CD73 (Homo sapiens)
Reply: 7.00 to 8.00
